Source of measurements: PubChem BioAssay (NCI)

# Test system: CAKI-1 renal
# ASSAY_PROCEDURE: NCI-60 one-dose screen, 48 h (100 = growth as untreated, 0 = no growth, -100 = all killed)
# EXPERIMENTAL_PARAMETERS: 10 µM unless noted
This is part of a sample that, as a whole, favours compounds with a hit. Of some 83,000 tested, about 20% had one in any assay. Activity calls are given as the source filed them. Rule for the calls: active = growth percent below 10; inactive = the rest.
Quick list: growth per entry.

Some solved entries appear below for comparison.
INSERT INTO measurements (compound, target_of_assay, observed_value) VALUES
  ('CCCCNc1cc(-c2cn[nH]c2-c2cc(C)cc(OC)c2)nc(-c2cccnc2)n1', 'CAKI-1 renal', '66.2% (inactive)'),
  ('O=C(CC(=O)Nc1cccc(C(=O)O)c1)Nc1cccc(C(=O)O)c1', 'CAKI-1 renal', '86.5% (inactive)'),
  ('CN(CCCNC(=O)Cc1ccc2ccc3cccc4ccc1c2c34)CCCNc1cc(-c2ccc3ccccc3c2)nc2ccccc12', 'CAKI-1 renal', '-36.9% (active)'),
  ('O=C1/C(=C\c2ccccn2)c2ccccc2N1c1c(Cl)cccc1Cl', 'CAKI-1 renal', '-1.37% (active)'),
  ('O=S(=O)(NCCCNc1nccc(-c2c(-c3cccc(F)c3)nc3occn23)n1)c1ccc(F)cc1', 'CAKI-1 renal', '37.1% (inactive)'),
  ('O=C1NC(=O)/C(=C/c2c(-c3ccccc3)nc3sc(COc4ccccc4)nn23)S1', 'CAKI-1 renal', '98% (inactive)'),
  ('C=Cc1cnc(Nc2ccc(OC)cc2)nc1NCCCNC(=O)C1CCC1', 'CAKI-1 renal', '14.4% (inactive)'),
  ('O=C(CCSc1nnc2n(Cc3ccccc3)c(=O)c3c4c(sc3n12)CCCC4)N1CCN(c2ccccc2)CC1', 'CAKI-1 renal', '92.8% (inactive)'),
  ('C=C1C(=O)O[C@H]2[C@H]1CC/C(Cn1cc(CCC)nn1)=C\CC[C@@]1(C)O[C@@H]21', 'CAKI-1 renal', '5.35% (active)'),
  ('CN1CCN(Cc2ccc(NC(=O)c3cncc(C#Cc4cnc5ccc(Cl)nn45)c3)cc2C(F)(F)F)CC1', 'CAKI-1 renal', '-13.6% (active)');

Task: Looking for the measured growth of `COc1cc(Cl)c(C)cc1NC(=O)c1cc2ccccc2cc1O` , can you help?
Output: -12.7% (active)

Task: Looking for the measured growth of `C/C(Cc1ccc(Cl)cc1)=C(\c1ccc(OCCCN(C)C)cc1)c1ccc(OC(=O)Cc2ccccc2)cc1` , can you help?
Output: 97% (inactive)

Task: Looking for the measured growth of `CCN(CC)c1ccc(/C=N/NC(=O)Cc2ccc(Nc3ccnc(C(F)(F)F)c3)cc2)c(O)c1` , can you help?
Output: -20.8% (active)

Task: Looking for the measured growth of NC1(CO)COC(c2ccccc2)OC1 (stereo not given) , can you help?
Output: 103% (inactive)

Task: Looking for the measured growth of `CC(C)(C)c1cc(Cl)c(O)c(CNCCO)c1` , can you help?
Output: 94.1% (inactive)

Task: Looking for the measured growth of `CCN1CCN(CCNc2nccc(-c3c(-c4ccc(F)c(OC)c4)nc4sccn34)n2)S1(=O)=O` , can you help?
Output: 77.5% (inactive)

Task: Looking for the measured growth of `CN(C)c1ccc(-c2nc(-c3ccccc3)c(-c3ccccc3)[nH]2)cc1` , can you help?
Output: 84.6% (inactive)

Task: Looking for the measured growth of `O=[N+]([O-])c1cc(NS(=O)(=O)c2ccccc2)ccc1NS(=O)(=O)c1ccccc1` , can you help?
Output: 129% (inactive)

Task: Looking for the measured growth of `CCCC(CC)(C(=O)Nc1ccc2nc(C)cc(N)c2c1)C(=O)Nc1ccc2nc(C)cc(N)c2c1` , can you help?
Output: 91.9% (inactive)

Task: Looking for the measured growth of `O=C(Nc1ncc(Cc2ccccc2)s1)c1ccc2c(c1)OCCCO2` , can you help?
Output: 25.3% (inactive)

* * *

# System: T-47D breast
# ASSAY_PROCEDURE: NCI-60 one-dose screen, 48 h
# EXPERIMENTAL_PARAMETERS: 10 µM unless noted
The panel holds about 83,000 compounds, 20% with a hit somewhere; the sample as a whole holds those more often. Active and inactive are the calls of the source. The calls were made as follows: active = growth percent below 10; inactive = the rest.
Respond using exactly one of the listed classes: y (active), n (inactive)

Task: Please state the recorded outcome for this compound: `COC(=O)CCC/C=C\C[C@H]1C=CC(=O)/C1=C/C[C@@H](O)C/C=C\CC(F)(F)F`
Output: y

Task: Please state the recorded outcome for this compound: `CCN1CCN(CC(=O)Nc2nc3ccc(NCc4ccc(F)cc4)cc3s2)CC1`
Output: n

Task: Please state the recorded outcome for this compound: `Cc1nnc(-c2ccc3c(c2)nc(/C=C/c2ccccc2)n3C2CCCCC2)o1`
Output: n

Task: Please state the recorded outcome for this compound: `COc1cccc(CCNc2ncnc3c2ncn3Cc2nnc3c4ccccc4c(Cl)nn23)c1`
Output: n

* * *

# System: OVCAR-5 ovarian
# ASSAY_PROCEDURE: NCI-60 one-dose screen, 48 h (100 = growth as untreated, 0 = no growth, -100 = all killed)
# EXPERIMENTAL_PARAMETERS: 10 µM unless noted
The panel holds about 83,000 compounds, 20% with a hit somewhere; the sample as a whole holds those more often.
Flag rule - growth less than 40% flags y; the remaining entries get n.

Take a look at these entries with their results.
INSERT INTO results (item_smiles, target_of_assay, label_class) VALUES
  ('CCCCCCCC/C=C\CCCCCCCCOc1ccc(CC(=O)NCC[N+]2(C)CCOCC2)cc1', 'OVCAR-5 ovarian', 'y'),
  ('COc1ccc(C[n+]2c3ccccc3n3c4ccc(N)cc4ccc32)c(OC)c1OC', 'OVCAR-5 ovarian', 'n');

Task: Identify whether the compound `C#CC#CC#CC#CC#CC#CC#CC#CC[C@@H]1OC[C@@H](COC(=O)O[C@@H](C(=O)O[C@H]2C[C@@]3(O)[C@@H](OC(=O)c4ccccc4)[C@@H]4[C@]5(OC(C)=O)CO[C@@H]5C[C@H](O)[C@@]4(C)C(=O)[C@H](OC(C)=O)C(=C2C)C3(C)C)[C@@H](NC(=O)c2ccccc2)c2ccccc2)O1` records growth below 40%.
Output: y

Task: Identify whether the compound `COc1ccc(C(=O)c2cc3c(N)c(C(=O)Nc4ccccc4)sc3nc2C)cc1` records growth below 40%.
Output: y

Task: Identify whether the compound `O=C(Nc1cc(Cl)ccc1O)c1cccc(Nc2ccnc(C(F)(F)F)c2)c1` records growth below 40%.
Output: n

Task: Identify whether the compound `C/C(=N\O)c1ccc(NC(=O)CSc2nnc(-c3cc(-c4ccc(S(C)(=O)=O)cc4)nc4ccccc34)n2-c2ccccc2)cc1` records growth below 40%.
Output: n

Task: Identify whether the compound `COc1ccc(-c2cc(-c3ccccc3)nc(N3CCN(CCNc4ccnc5cc(Cl)ccc45)CC3)n2)cc1` records growth below 40%.
Output: n

* * *

# System: M14 melanoma
# ASSAY_PROCEDURE: NCI-60 one-dose screen, 48 h
# EXPERIMENTAL_PARAMETERS: 10 µM unless noted
# Experimental: Growth inhibition of the M14 human tumor cell line is measured as a screen for anti-cancer activity. Cells are grown in 96 well plates and exposed to the test compound for 48 hours. Compounds are tested at a single concentration, which is 10^-5 M for most compounds. The reported endpoint is percent growth (GI% or GIPRCNT), where numbers from 0 - 100% represent growth inhibition, and numbers from -100% - 0 represent cell death. For example, a value of 40 represents 60% growth inhibition. […]
Compounds without any hit were thinned out: in the full panel of roughly 83,000, 20% have a hit. Activity calls are given as the source filed them. How the source made its calls: active means growth percent below 10; inactive means the rest.
Respond using exactly one of the listed classes: active, inactive

Take a look at these entries with their results.
INSERT INTO results (compound, label_class) VALUES
  ('CCCn1cnc2c(c1=N)C(c1ccc(F)cc1)c1sc3c(F)cccc3c1O2 (stereo not drawn)', 'inactive'),
  ('COc1cc(C2C(C(=O)OCc3ccccc3)=C(C)NC(C)=C2C(=O)OCc2ccccc2)cc(OC)c1OC', 'inactive'),
  ('CCCCC#Cc1c(I)n(C)c(=O)[nH]c1=O', 'active'),
  ('CC1(C)CC[C@]23CC[C@]4(C)[C@H](CC[C@@H]5[C@@]6(C)C/C(=C/c7ccncc7)C(=O)C(C)(C)[C@@H]6CC[C@]54C)[C@H]2[C@H]1OC3', 'inactive'),
  ('O=C(CC(=O)Nc1cccc(C(=O)O)c1)Nc1cccc(C(=O)O)c1', 'inactive');

Task: Please state the recorded outcome for this compound: `CSc1nc(C)c([N+](=O)[O-])c(N)n1`
Output: inactive

Task: Please state the recorded outcome for this compound: O=C(C1CCCCC1)[C@@H]1[C@]2(C(=O)NC3CCCCC32)[C@@H]2CCCN2[C@@]12C(=O)NC1CCC(Cl)CC12 (stereo partly drawn)
Output: active

Task: Please state the recorded outcome for this compound: CN(Cc1ccccc1)c1nc(Cl)c(C2CC(c3ccccc3)=NN2c2ccccc2)s1 (stereo not drawn)
Output: inactive

Task: Please state the recorded outcome for this compound: `Nc1nc(NC(=O)Nc2ccc(C(=O)O)cc2)nn1-c1ccc(S(N)(=O)=O)cc1`
Output: inactive
